This collection of values is drawn from patent US8618133B2.

target: reuptake of 5-serotonin (5-HT) by brain synaptosomes (Rattus norvegicus, UniProt P31652); construct: taking prefrontal cortex for the [^3H]5-HT and [^3H]NA reuptake experiment; from tissue; host or cells: rat brain prefrontal cortex synaptosomes; test: [3H]5-HT reuptake by rat brain synaptosomes; format: biochemical; conditions: rat prefrontal cortex synaptosomes; 0.1 mmol/L for control drug and drug to be detected
Sequence (P31652 whole entry): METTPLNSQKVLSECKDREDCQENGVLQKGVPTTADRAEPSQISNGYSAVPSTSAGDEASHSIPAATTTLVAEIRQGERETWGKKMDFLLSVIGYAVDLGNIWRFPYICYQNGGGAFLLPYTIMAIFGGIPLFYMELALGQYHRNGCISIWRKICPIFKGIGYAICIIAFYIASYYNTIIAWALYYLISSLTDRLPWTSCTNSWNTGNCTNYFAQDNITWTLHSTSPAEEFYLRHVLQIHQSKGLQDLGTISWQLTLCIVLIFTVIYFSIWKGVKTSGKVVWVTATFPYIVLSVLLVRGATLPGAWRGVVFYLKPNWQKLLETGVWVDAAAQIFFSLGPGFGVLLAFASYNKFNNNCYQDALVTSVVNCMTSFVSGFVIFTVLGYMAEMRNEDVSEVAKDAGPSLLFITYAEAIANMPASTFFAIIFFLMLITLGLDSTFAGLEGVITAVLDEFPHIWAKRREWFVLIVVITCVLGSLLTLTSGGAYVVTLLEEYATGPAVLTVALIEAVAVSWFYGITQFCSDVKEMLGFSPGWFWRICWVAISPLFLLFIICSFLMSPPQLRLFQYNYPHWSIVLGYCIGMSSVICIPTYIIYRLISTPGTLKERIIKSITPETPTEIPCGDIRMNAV
property label: Inhibition of reuptake of 5-HT
API note: the answer field is a bare number with no unit suffix.

Req: Name the recorded Inhibition of reuptake of 5-HT for COc1ccc2cc(C(O)CCN3CCC(=Cc4ccccc4)CC3)ccc2c1Cl (stereo not shown) [Compound V-32] .
Resp: 104.4

Req: Name the recorded Inhibition of reuptake of 5-HT for COc1ccc2cc(C(O)C(C)N3CCC(=Cc4ccccc4)CC3)ccc2c1Cl (stereo not shown) [Compound V-38] .
Resp: 107.0

Req: Name the recorded Inhibition of reuptake of 5-HT for COc1ccc2cc([C@@H](O)[C@H](C)N3CCC(O)(Cc4ccccc4)CC3)ccc2c1Cl [Compound V-14] .
Resp: 94.9

Req: Name the recorded Inhibition of reuptake of 5-HT for COc1ccc2cc([C@@H](O)[C@H](C)N3CCC(Cc4ccccc4)CC3)ccc2c1Cl [Compound V-2] .
Resp: 105.6

Req: Name the recorded Inhibition of reuptake of 5-HT for COc1ccc2cc(C(O)C(C)N3CCC(=Cc4ccc(F)cc4)CC3)ccc2c1Cl (stereo not shown) [Compound V-34] .
Resp: 106.3

Req: Name the recorded Inhibition of reuptake of 5-HT for COc1ccc2cc([C@@H](O)[C@H](C)N3CC=C(Cc4ccccc4)CC3)ccc2c1Cl [Compound V-40] .
Resp: 99.5

Req: Name the recorded Inhibition of reuptake of 5-HT for COc1ccc2cc([C@@H](O)[C@H](C)N3CCC(OCc4ccccc4)CC3)ccc2c1Cl [Compound V-50] .
Resp: 91.8
